biological target: T1, human CD8 alpha (CD8A) on primary human CD8+ T cells (human, UniProt P01732 22-235); assay: flow cytometry, human CD8+ T cells, 0.2 uM FN3
T1 construct: whole, on cells; also called hCD8A
T1 sequence (P01732 22-235): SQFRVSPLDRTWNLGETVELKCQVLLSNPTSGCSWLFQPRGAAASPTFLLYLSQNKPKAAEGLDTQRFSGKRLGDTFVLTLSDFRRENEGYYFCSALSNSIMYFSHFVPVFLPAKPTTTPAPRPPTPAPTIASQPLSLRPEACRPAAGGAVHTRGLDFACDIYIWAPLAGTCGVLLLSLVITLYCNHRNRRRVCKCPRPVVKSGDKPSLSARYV
Recorded Metric: Human T-cell Binding 0.2 uM (MFI)

P: P283AR9P1362_C12 (designed binder, FN3 domain) LPAPKNLVVSRVTEDSARLSWAKNLHSFDSFLIQYQESEKVGEAIVLTVPGSERSYDLTGLKPGTEYTVSIYGVDVKYDIDSRPISSNPLSAIFTT
Q: P282FR9P1361_F7 (designed binder, FN3 domain) LPAPKNLVVSRVTEDSARLSWTAPDAAFDSFPIWYREYATGEAIVLTVPGSERSYDLTGLKPGTEYDVVITGVKGGYPSYPLSAIFTT
Prompt line: Lab note: check whether P or Q has the lower measured Human T-cell Binding 0.2 uM (MFI). Please reply using the label of the selected record.
Response line: Q
